- Substrate: BHET
- measurementContext: 120 h
recordedEndpoint: plate clearing

[
  {
    "protein": "unnamed (protein) MRLIRRWPMRRLAIGFVLALVLSACDWRGPAPTQQSVVAARGPFAVGTIAVPSSAGFGGGTIYYPSDNAGPFAVISISPGFLGDQSSIAVWGPRLASNGFVAITINTTNGFILPDQRSQEQRQALTYVVNQGNNPSSPISGKVDPDRKGVAGHSMGGGATLISANADPTIRAAMPLAPWNGSASFPNVRVPTLIWACEADNIAPVASHASPMYNSIPSTTRKMYLSVDNGNHFCANSPDNSSQTVGKFGVSFFKKFLDTDTRYDPWVCGASRATAGTVLNEVRSTCPF",
    "result": "not clears the plate"
  },
  {
    "protein": "unnamed (protein) MKIDSIIKFLCTALLVTFSLGVYAGGGGGGDEPSNDGQLPAPDTCTSNCGYANGANPTLSSLQASQGQYSVGTVNVSSSVNGFGGGTIYYPTNLSGELAAIAIAPGFTNTQSAVQWWGPVLASRGFVVVTINTNGRFDFPSSRSRQLDSALNYLIYLGEQSSGAISGKVDKNRLATMGFSMGGGGALESASRNRLSATVPLAPWYSGSNPFNQINVPSMIMACENDGTAGVNTHASPFYNRIPGSTDKVYLELNNGSHNCATGQDSNYRTTISTYGVSWLKRFLDKDSRYNQFLCGPNHVANARISEFRDTCNF",
    "result": "not clears the plate"
  },
  {
    "protein": "unnamed (protein) MIMKNIDRRLRHCAVGLGLLLLAAVAQAQTNPLAKGPDPTSDLLNATAGPFAVATTSVSSSVSGFGGGTVYYPTASGSYATVAVCPGFTATQSSIAWIGRRMASHGFVVMTINTNSTLDQPPSRATQLMAALRYLTNSSNSTVRARVDANRLGVAGHSMGGGGTLMAARDNPTLKAAVPMTPWSQTKSFSTVRVPTLIVGAENDSVAPVASHSIPFYTSLSGSLDKAYAELNNASHFAPNSTNTPIGRYSVAWVKRFMDNDTRY",
    "result": "not clears the plate"
  }
]

Where do these numbers come from? They come from the PETadex activity labels.
